Tested on: USP2^CD (purified catalytic domain of USP2) (Homo sapiens)
Construct: The purified catalytic domain of USP2 (USP2^CD, in-house purified); His; made in house; host or cells: E. coli BL21 Gold
Sequence (O75604 267-599 limits assumed): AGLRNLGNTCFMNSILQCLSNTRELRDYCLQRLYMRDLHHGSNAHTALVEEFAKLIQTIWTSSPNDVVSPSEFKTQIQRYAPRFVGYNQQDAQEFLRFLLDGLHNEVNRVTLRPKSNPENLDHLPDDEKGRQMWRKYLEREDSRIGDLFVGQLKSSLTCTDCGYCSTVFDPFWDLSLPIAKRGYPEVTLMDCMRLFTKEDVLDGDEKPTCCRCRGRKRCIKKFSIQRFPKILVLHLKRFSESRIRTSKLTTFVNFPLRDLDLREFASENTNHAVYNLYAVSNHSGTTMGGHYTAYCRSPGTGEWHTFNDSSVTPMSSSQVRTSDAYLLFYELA
Procedure summary: Inhibition of purified USP2^CD enzymatic activity (Ub-AMC or Ub-Rho substrate)
Assay type: biochemical
Run parameters: 1 μM compound; Table 1b
Measure name: inhibition at 1 µM (%)

>  <Compound>
CCS(=O)(=O)Cc1nc2c(nc1CS(=O)(=O)CC)C(=O)c1ccccc1C2=O [VIN6075]

>  <Units text>
%

>  <inhibition at 1 µM>
51

$$$$
>  <Compound>
O=C1c2ccccc2C(=O)c2nc(CS(=O)(=O)c3cccc(Cl)c3)c(CS(=O)(=O)c3cccc(Cl)c3)nc21 [OVM15]

>  <Units text>
%

>  <inhibition at 1 µM>
0

$$$$
>  <Compound>
O=C1c2ccccc2C(=O)c2nc(CS(=O)(=O)c3ccc(Br)s3)c(CS(=O)(=O)c3ccc(Br)s3)nc21 [OVM16]

>  <Units text>
%

>  <inhibition at 1 µM>
1

$$$$

(I) O=C1c2ccccc2C(=O)c2nc(CS(=O)(=O)c3ccc(F)c(F)c3F)c(CS(=O)(=O)c3ccc(F)c(F)c3F)nc21 [OVM23]
(II) COc1ccc(S(=O)(=O)Cc2nc3c(nc2CS(=O)(=O)c2ccc(OC)cc2)C(=O)c2ccccc2C3=O)cc1 [PCR7994]
Data request: From the items above, decide which of I and II has the lower inhibition at 1 µM reading. Your answer should be the label attached to the chosen record.
Data returned: II

* * *

Tested on: USP8^CD (purified catalytic domain of USP8) (Homo sapiens, UniProt P40818)
Construct: the purified catalytic domain of USP8 (USP8^CD, in-house purified); made in house; host or cells: E. coli BL21 Gold
Sequence (P40818 777-1109 limits assumed): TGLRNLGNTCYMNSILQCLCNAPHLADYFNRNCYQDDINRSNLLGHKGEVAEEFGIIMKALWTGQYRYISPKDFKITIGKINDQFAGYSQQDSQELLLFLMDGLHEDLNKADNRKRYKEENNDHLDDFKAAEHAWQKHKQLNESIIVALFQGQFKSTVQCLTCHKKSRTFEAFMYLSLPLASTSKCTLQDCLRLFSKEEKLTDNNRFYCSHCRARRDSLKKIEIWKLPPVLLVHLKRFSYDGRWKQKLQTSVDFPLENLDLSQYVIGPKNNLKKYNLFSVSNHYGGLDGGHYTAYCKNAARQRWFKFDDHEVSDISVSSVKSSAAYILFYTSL
Procedure summary: Inhibition of purified USP8^CD enzymatic activity (Ub-AMC or Ub-Rho substrate)
Assay type: biochemical
Run parameters: 0.1 μM compound; Ub-AMC at 1 μM; Table 1a
Measure name: USP8^CD % inhibition (%)

Worked examples follow.
>  <Molecular string>
Cc1ccc(S(=O)(=O)Cc2nc3c(nc2CS(=O)(=O)c2ccc(C)cc2)C(=O)c2ccccc2C3=O)cc1

>  <Measure name>
USP8^CD % inhibition

>  <Units text>
%

>  <Value>
1

$$$$
>  <Molecular string>
CC/C=C/c1nc2c(nc1/C=C/CC)C(=O)c1ccccc1C2=O

>  <Measure name>
USP8^CD % inhibition

>  <Units text>
%

>  <Value>
6

$$$$
>  <Molecular string>
O=C1c2ccccc2C(=O)c2nc(CS(=O)(=O)c3ccc(F)cc3)c(CS(=O)(=O)c3ccc(F)cc3)nc21

>  <Measure name>
USP8^CD % inhibition

>  <Units text>
%

>  <Value>
0

$$$$
>  <Molecular string>
O=C1c2ccccc2C(=O)c2nc(CCl)c(CCl)nc21

>  <Measure name>
USP8^CD % inhibition

>  <Units text>
%

>  <Value>
11

$$$$
>  <Molecular string>
O=C1c2ccccc2C(=O)c2nc(CS(=O)(=O)c3ccc([N+](=O)[O-])cc3)c(CS(=O)(=O)c3ccc([N+](=O)[O-])cc3)nc21

>  <Measure name>
USP8^CD % inhibition

>  <Units text>
%

>  <Value>
42

$$$$

(A) O=C1c2ccccc2C(=O)c2nc(CS(=O)(=O)c3ccccc3)c(CS(=O)(=O)c3ccccc3)nc21
(B) O=C1c2ccccc2C(=O)c2nc(CS(=O)(=O)c3cccs3)c(CS(=O)(=O)c3cccs3)nc21
Data request: Larger number for USP8^CD % inhibition: A , or B ? Your answer should be the label attached to the chosen record.
Data returned: B
